# Tested On: T1, RON-Fc (human RON Sema, PSI and IPT1 domains, E25-M682, Fc fusion with human IgG1) (human, UniProt Q04912-1 25-682)
# T1 construct: human RON (Recepteur d'Origine Nantais, MST1R), Sema, PSI and IPT1 domains, E25-M682; also called RON-Fc fusion protein; source: CHO cells; purified (MabSelect Sure, SEC)
# T1 sequence (looked up): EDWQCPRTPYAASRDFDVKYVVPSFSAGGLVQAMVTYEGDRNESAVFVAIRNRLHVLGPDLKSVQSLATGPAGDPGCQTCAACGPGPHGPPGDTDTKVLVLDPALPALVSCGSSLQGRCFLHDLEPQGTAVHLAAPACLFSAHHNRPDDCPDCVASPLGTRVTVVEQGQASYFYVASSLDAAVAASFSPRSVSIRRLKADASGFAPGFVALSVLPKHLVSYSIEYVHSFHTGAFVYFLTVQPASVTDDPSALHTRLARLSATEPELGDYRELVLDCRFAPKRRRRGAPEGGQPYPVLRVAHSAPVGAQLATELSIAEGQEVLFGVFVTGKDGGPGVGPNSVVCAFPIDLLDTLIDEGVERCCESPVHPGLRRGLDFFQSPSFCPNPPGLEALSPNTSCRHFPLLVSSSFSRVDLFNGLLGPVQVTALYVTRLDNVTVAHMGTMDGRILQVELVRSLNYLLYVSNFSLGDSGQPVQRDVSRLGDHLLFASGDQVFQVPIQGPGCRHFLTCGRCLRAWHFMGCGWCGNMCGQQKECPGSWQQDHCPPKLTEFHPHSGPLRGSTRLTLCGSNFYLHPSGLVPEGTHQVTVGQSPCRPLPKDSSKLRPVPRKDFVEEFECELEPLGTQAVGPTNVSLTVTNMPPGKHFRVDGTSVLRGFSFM
# Procedure Text: SPR; RON-Fc captured (50-100 RU) on immobilised anti-human Fc surfaces, CM5 chip, Biacore 3000; MSP, MSP β or scMSP injected 500-3.9 nM in HBS-P (10 mM HEPES pH 7.5, 150 mM NaCl, 0.005% P20), 25°C, 30 µl/min; global 1:1 Langmuir fit, KD = koff/kon
# Reported Conditions: both partners purified
Measured Property: koff (s⁻¹)
Give just the numeric value; s⁻¹ need not be written.

Binder	koff, s⁻¹
MSP β 689C (V484-G711; C588S, C672A; 689C) (domain or fragment, human, UniProt P26927 484-711, looked up, source: CHO cells, transiently transfected, secreted; purified (Ni-NTA, SEC); not shown: His6, C-terminal, kept) VVGGHPGNSPWTVSLRNRQGQHFCGGSLVKEQWILTARQCFSSCHMPLTGYEVWLGTLFQNPQHGEPSLQRVPVAKMVCGPSGSQLVLLKLERSVTLNQRVALISLPPEWYVVPPGTKCEIAGWGETKGTGNDTVLNVALLNVISNQECNIKHRGRVRESEMCTEGLLAPVGACEGDYGGPLACFTHNAWVLEGIIIPNRVCARSCWPAVFTRVSVFVDWIHKVMRLG	0.0419

Look at this binder and give its reported koff. MSP β 672C 689R (V484-G711; C588S, without C672A) (domain or fragment, human, UniProt P26927 484-711, looked up, source: CHO cells, transiently transfected, secreted; purified (Ni-NTA, SEC)) VVGGHPGNSPWTVSLRNRQGQHFCGGSLVKEQWILTARQCFSSCHMPLTGYEVWLGTLFQNPQHGEPSLQRVPVAKMVCGPSGSQLVLLKLERSVTLNQRVALISLPPEWYVVPPGTKCEIAGWGETKGTGNDTVLNVALLNVISNQECNIKHRGRVRESEMCTEGLLAPVGACEGDYGGPLACFTHNCWVLEGIIIPNRVCARSRWPAVFTRVSVFVDWIHKVMRLG
0.0066

Look at this binder and give its reported koff. MSP β 689R (V484-G711; C588S, C672A) (domain or fragment, human, UniProt P26927 484-711, looked up, source: CHO cells, transiently transfected, secreted; purified (Ni-NTA, SEC); not shown: His6, C-terminal, kept) VVGGHPGNSPWTVSLRNRQGQHFCGGSLVKEQWILTARQCFSSCHMPLTGYEVWLGTLFQNPQHGEPSLQRVPVAKMVCGPSGSQLVLLKLERSVTLNQRVALISLPPEWYVVPPGTKCEIAGWGETKGTGNDTVLNVALLNVISNQECNIKHRGRVRESEMCTEGLLAPVGACEGDYGGPLACFTHNAWVLEGIIIPNRVCARSRWPAVFTRVSVFVDWIHKVMRLG
0.0175

Look at this binder and give its reported koff. MSP β 672C 689C (V484-G711; C588S, without C672A; 689C) (domain or fragment, human, UniProt P26927 484-711, looked up, source: CHO cells, transiently transfected, secreted; purified (Ni-NTA, SEC)) VVGGHPGNSPWTVSLRNRQGQHFCGGSLVKEQWILTARQCFSSCHMPLTGYEVWLGTLFQNPQHGEPSLQRVPVAKMVCGPSGSQLVLLKLERSVTLNQRVALISLPPEWYVVPPGTKCEIAGWGETKGTGNDTVLNVALLNVISNQECNIKHRGRVRESEMCTEGLLAPVGACEGDYGGPLACFTHNCWVLEGIIIPNRVCARSCWPAVFTRVSVFVDWIHKVMRLG
0.0075
